test: Determination of inhibitor concentration in mouse plasma after intraperitoneal and oral dosing; type: in vivo; conditions: female, PO, 50 mg/kg, vehicle PEG400:H2O pH 2.3 60:40, read-out: Cmin (7 hr conc.)
In this section, each of the molecules is paired with its reported log10 concentration at 7 h.
Lab note - concentration at 7 h converted to log10 from values in ng/mL.

Observe how each entry below is paired with its result.
molecule	log10 concentration at 7 h
O=C(Nc1cccc(C(=O)c2ccc3c(-c4nc5cccnc5[nH]4)n[nH]c3c2)c1)c1ccccc1 [Example 42(d)]	1.26
O=C(Nc1cccc(C(=O)c2ccc3c(/C=C/c4ccccc4)n[nH]c3c2)c1)c1ccncc1 [Example 19(j)]	1.80

Which log10 concentration at 7 h value is on record for Cc1cc(C(=O)Nc2cccc(C(=O)c3ccc4c(/C=C/c5ccccn5)n[nH]c4c3)c2)n[nH]1 [Example 41(g)] ?
0.00

What value of log10 concentration at 7 h has been recorded for this entry: O=C(c1cccc(NC(=O)c2ccccn2)c1)c1ccc2c(/C=C/c3ccccn3)n[nH]c2c1 [Example 41(aa)]
0.70

Look up log10 concentration at 7 h: CC(=O)c1ccc(C(=O)Nc2cccc(C(=O)c3ccc4c(/C=C/c5ccccn5)n[nH]c4c3)c2)s1 [Example 41(e)]
0.85

# query: log10 concentration at 7 h of entry O=C(Nc1cccc(C(=O)c2ccc3c(-c4nc5ccccc5[nH]4)n[nH]c3c2)c1)c1ccccc1 [Example 42(b)]
1.66

---

biological target: unphosphorylated VEGF-R2Δ50 (FLVK) (Homo sapiens, UniProt P35968, DEL940-989/E990V); test: VEGF-R2 coupled spectrophotometric assay, unphosphorylated VEGF-R2Δ50 (FLVK); conditions: FLVK Ki, Table 1
Sequence (P35968 with tags, fused parts or gaps DEL940-989/E990V limits assumed): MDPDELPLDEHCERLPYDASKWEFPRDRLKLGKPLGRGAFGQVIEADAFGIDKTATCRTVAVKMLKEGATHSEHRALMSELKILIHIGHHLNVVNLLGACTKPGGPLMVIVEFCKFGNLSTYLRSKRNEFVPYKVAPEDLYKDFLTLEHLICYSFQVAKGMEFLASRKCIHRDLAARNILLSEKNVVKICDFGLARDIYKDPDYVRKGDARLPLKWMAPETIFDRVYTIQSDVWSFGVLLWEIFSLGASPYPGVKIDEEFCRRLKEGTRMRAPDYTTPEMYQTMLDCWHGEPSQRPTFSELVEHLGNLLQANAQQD
pKi: −log10 of the molar value.
Rule: MET for pKi not less than 9, NOT MET for anything less.

Examples with answers:
O=C(Nc1cccc(C(=O)c2ccc3c(/C=C/c4ccccc4)n[nH]c3c2)c1)c1ccncc1 MET
Brc1cccc(Oc2ccc3c(/C=C/c4ccccc4)n[nH]c3c2)c1 NOT MET
Nc1cccc(C(=O)c2ccc3c(/C=C/c4ccccc4)n[nH]c3c2)c1 NOT MET
O=C(Nc1cccc(Oc2ccc3c(/C=C/c4c[nH]cn4)n[nH]c3c2)c1)c1ccccc1 MET
CCn1nc(C)cc1C(=O)Nc1cccc(C(=O)c2ccc3c(/C=C/c4ccccn4)n[nH]c3c2)c1 MET
O=C(Nc1cccc(Cl)c1)c1ccccc1Sc1ccc2c(/C=C/c3ccccn3)n[nH]c2c1 MET

hey, is pKi for this one >= 9? O=C(c1cccc(NC(=O)c2cccc3[nH]ccc23)c1)c1ccc2c(/C=C/c3ccccn3)n[nH]c2c1
MET

Determine whether measured pKi meets or exceeds 9 for Oc1cccc(Oc2ccc3c(/C=C/c4ccccc4)n[nH]c3c2)c1
NOT MET

---

Attribute: Ki
biological target: phosphorylated VEGF-R2Δ50 (FLVK-P) (Homo sapiens, UniProt P35968, DEL940-989/E990V); experiment: VEGF-R2 coupled spectrophotometric assay, phosphorylated VEGF-R2Δ50 (FLVK-P)
Sequence (P35968 with tags, fused parts or gaps DEL940-989/E990V limits assumed): as above
Dear colleague, please return just the value in nM, with no unit written.

Reference set (5 entries):
compound	outcome measure	value
Cc1cc(O)c(Cl)cc1-c1ccc2c(-c3nc4ccccc4[nH]3)n[nH]c2c1	Ki	14.2
CN(c1cccc(NC(=O)c2ccccc2)c1)c1ccc2c(/C=C/c3ccccc3)n[nH]c2c1	Ki	1.8
C=C(c1cccc(NC(=O)c2ccccc2)c1)c1ccc2c(/C=C/c3ccccc3)n[nH]c2c1	Ki	1.2
C=C(c1cccc(NC(=O)c2ncc(C)s2)c1)c1ccc2c(/C=C/c3ccccc3)n[nH]c2c1	Ki	0.2
CC(C)C(=O)Nc1cccc(C(=O)c2ccc3c(/C=C/c4ccccc4)n[nH]c3c2)c1	Ki	5.9

Field request: Ki | item: O=C(Nc1cccc(C(=O)c2ccc3c(/C=C/c4ccccc4)n[nH]c3c2)c1)OCc1ccccc1
5.9

Any idea what Ki was measured for COc1cc(-c2ccc3c(-c4nc5ccccc5[nH]4)n[nH]c3c2)c(C)cc1O ?
98.3

Fill in the blank: the reported Ki of COc1cc(-c2ccc3c(/C=C/c4ccc(NC(=O)CN)cc4)n[nH]c3c2)ccc1O is ____.
1.1
